Source of measurements: PubChem BioAssay AID1259375

Biological target: Microphthalmia-associated transcription factor (Homo sapiens)
Experiment: MITF inhibitors by FRET titration, dose response, biochemical, high throughput (AID 1259375);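 note: FRET between CFP-tagged and YFP-tagged MITF protein partners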
Settings: FRET biochemical assay, MITF inhibition
Activity calls are given as the source filed them. The rule behind the calls is not given here.
Pick one: 1 for active, -1 for inactive

>>> df
                                   compound  class_name
0  O=c1c(O)c(-c2ccc(O)cc2O)oc2cc(O)cc(O)c12          -1
1  Cc1cc(C)nc(NS(=O)(=O)c2ccc(N3C(=O)C=CC3=O)cc2)n1          -1
2             Brc1c(OCCN2CCNCC2)ccc2ccccc12          -1
3  CC(C)N(C(=O)COC(=O)c1cc(-c2ccco2)nc2ccccc12)C(C)C          -1
4  CCN(CC)c1ccc(C(c2c(C)[nH][nH]c2=O)c2c(C)[nH][nH]c2=O)cc1           1

QUERY: I would be grateful if you could indicate the recorded call for O=C(O)c1cc(NN=C2CCCC2)ccc1Cl .
RESULT: -1

QUERY: State the result this test recorded for O=c1[nH]cccc1-c1ccc(Nc2nccc(-c3ccc4nc(C5CC5)[nH]c(=O)c4c3)n2)cc1 .
RESULT: -1

----------
Biological target: Microphthalmia-associated transcription factor (Homo sapiens) (UniProt O75030)
Sequence (O75030 whole entry, looked up): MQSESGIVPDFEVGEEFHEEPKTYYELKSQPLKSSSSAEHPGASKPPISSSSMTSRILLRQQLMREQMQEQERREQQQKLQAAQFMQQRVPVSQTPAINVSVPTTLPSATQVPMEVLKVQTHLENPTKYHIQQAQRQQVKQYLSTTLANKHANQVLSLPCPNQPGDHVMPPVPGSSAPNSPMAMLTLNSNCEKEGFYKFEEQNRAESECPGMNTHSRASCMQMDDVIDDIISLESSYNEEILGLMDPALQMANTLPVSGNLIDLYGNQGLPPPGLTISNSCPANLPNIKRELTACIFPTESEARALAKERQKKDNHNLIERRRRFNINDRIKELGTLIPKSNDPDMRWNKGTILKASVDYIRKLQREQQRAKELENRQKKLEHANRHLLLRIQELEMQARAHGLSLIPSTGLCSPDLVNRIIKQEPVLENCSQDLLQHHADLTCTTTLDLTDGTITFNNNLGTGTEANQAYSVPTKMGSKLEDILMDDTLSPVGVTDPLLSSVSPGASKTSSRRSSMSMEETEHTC
Assay: MITF inhibitors by FRET titration, dose response, biochemical, high throughput (AID 1259375);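 note: FRET between CFP-tagged and YFP-tagged MITF protein partners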
Details: FRET biochemical assay, MITF inhibition
The source made the active and inactive calls. How the calls were made is not given here.
MEASUREMENT_NAME: IC50

QUERY: Any idea what IC50 was measured for S=c1[nH]nc(-c2cccnc2)n1/N=C/C=C/c1ccco1 ?
RESULT: > 6.48 µM (inactive)

QUERY: Look up IC50: CCOC(=O)C1C2NC(=S)N(c3ccc(CC)cc3)C1(C)Oc1c(OCC)cccc12 (centres undefined)
RESULT: > 5.53 µM (inactive)

QUERY: Sample O=C(Cn1ncn2cccc2c1=O)N1CCc2ccccc2C1 — what was its IC50?
RESULT: > 6.48 µM (inactive)

QUERY: So what does the record say about IC50 for CN(C)/C=C/C=C/C(=O)c1cccc(C(=O)/C=C/C=C/N(C)C)c1O ?
RESULT: > 6.48 µM (inactive)

----------
Target: Microphthalmia-associated transcription factor (Homo sapiens) (UniProt O75030)
Assay: MITF inhibitors by FRET titration, dose response, biochemical, high throughput (AID 1259375);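 note: FRET between CFP-tagged and YFP-tagged MITF protein partners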
Details: FRET biochemical assay, MITF inhibition
Activity calls are given as the source filed them. No rule for the calls is given here.
MEASUREMENT_NAME: IC50

>>> df
                                   compound  measurement_name                   val
0  CCc1ccc(CN2CCN(Cc3cc(OC)c(O)c(OC)c3)CC2)cc1              IC50  > 5.79 µM (inactive)

QUERY: What IC50 appears in the records for this compound with Microphthalmia-associated transcription factor (Homo sapiens) (UniProt O75030)? Clc1ccc2c(c1)CC(c1nc(Nc3cncnc3)c3ccccc3n1)CO2 (stereo unspecified)
RESULT: > 6.48 µM (inactive)

QUERY: Look up IC50 with Microphthalmia-associated transcription factor (Homo sapiens) (UniProt O75030) for this compound: CCN1CCN(CCOCCOc2ccc(F)cc2)CC1
RESULT: > 6.48 µM (inactive)

QUERY: # get_value(readout= IC50, system= Microphthalmia-associated transcription factor (Homo sapiens) (UniProt O75030)) for CNC(=O)COc1cc(-c2cn[nH]c2)ccc1NC(=O)C1COc2ccc(OC)cc2C1 (stereo unspecified)
RESULT: > 6.48 µM (inactive)

QUERY: Any idea what IC50 came out for O=C1N[C@H](CO)C(=O)N2CCN(C(=O)NCc3ccccc3)C[C@H]12 on Microphthalmia-associated transcription factor (Homo sapiens) (UniProt O75030)?
RESULT: > 6.48 µM (inactive)

QUERY: Provide value of IC50 for this record tested with Microphthalmia-associated transcription factor (Homo sapiens) (UniProt O75030): CN(C)CCS(=O)c1cc(-c2cn[nH]c2)ccc1NC(=O)[C@H]1Cc2cc(F)ccc2CN1 (stereo partly specified)
RESULT: > 6.48 µM (inactive)
